# Experiment summary: Rat pharmacokinetic study
# Assay type: in vivo, male Sprague Dawley rats
# Conditions: plasma, male Sprague Dawley, PO 5 mg/kg
Parameter: Tmax
Note: state the figure and append the unit.

Task: # input molecule: NC1CCC(S(=O)(=O)N2C3CCC2CC(NC(=O)c2cc(C4CC4)on2)C3)CC1 (stereo not shown) [EPZ028862] ; wanted: its Tmax
Output: 1 h

----------
# System: panel of 240 cancer cell lines
# Experiment summary: Proliferation in a broad panel of 240 cancer cell lines, 2D culture (Eurofins Panlabs Oncopanel)
# Type: cell-based
# Conditions: Homo sapiens, SW837, SW837, Colon/GI; read-out: IC50
Parameter: IC50

Task: What does the data say about its IC50? Entry: NC1CCC(S(=O)(=O)N2C3CCC2CC(NC(=O)c2cc(C4CC4)on2)C3)CC1 (stereo not shown)
Output: > 25 µM

----------
# System: panel of 240 cancer cell lines
# Experiment summary: Proliferation in a broad panel of 240 cancer cell lines, 2D culture (Eurofins Panlabs Oncopanel)
# Assay type: cell-based
# Conditions: Homo sapiens, NCI-H747, NCI-H747, Colon/GI; read-out: IC50
pIC50: −log10 of the molar value.
Parameter: pIC50

Task: Given NC1CCC(S(=O)(=O)N2C3CCC2CC(NC(=O)c2cc(C4CC4)on2)C3)CC1 (stereo not shown) [EPZ028862] , state its recorded pIC50.
Output: < 4.60

----------
# Experiment summary: Mouse pharmacokinetic study
# Conditions: male, CD-1, mouse, plasma, iv, 2 mg/kg
Parameter: clearance (mL/min/kg)
Write down the numeric answer in mL/min/kg and omit the unit.

Task: Value lookup for clearance; key = "O=C(NC1CN(Cc2cnn(Cc3ccc(Cl)cc3)c2)C1)c1cn(C2CC2)nn1"
Output: 37.4

----------
# System: panel of 240 cancer cell lines
# Experiment summary: Proliferation in a broad panel of 240 cancer cell lines, 2D culture (Eurofins Panlabs Oncopanel)
# Assay type: cell-based
# Conditions: Homo sapiens, C-4-II, C-4 II, Female GU; read-out: IC50
Parameter: IC50

Task: Using the record for NC1CCC(S(=O)(=O)N2C3CCC2CC(NC(=O)c2cc(C4CC4)on2)C3)CC1 (stereo not shown) , report its IC50.
Output: > 25 µM

----------
# Experiment summary: Plasma protein binding (equilibrium dialysis), human
# Conditions: pH 7.4, Human fu (unbound fraction)
Parameter: fraction unbound at 16 h, 1 µM
Number only, no unit.

Task: Entry O=C(NC1CN(Cc2cnn(Cc3ccc(Cl)cc3)c2)C1)c1cn(C2CC2)nn1 [EPZ033294] : reported fraction unbound at 16 h, 1 µM = ?
Output: 0.13

----------
# Experiment summary: Mouse pharmacokinetic study
# Conditions: male, CD-1, mouse, plasma, iv, 2 mg/kg
Parameter: Vd (L/kg)
# number only, unit L/kg dropped from output

Task: Request the reported Vd associated with O=C(NC1CN(Cc2cnn(Cc3ccc(Cl)cc3)c2)C1)c1cn(C2CC2)nn1 [EPZ033294]
Output: 4.5

----------
# Test system: SMYD2 (Homo sapiens, UniProt Q9NRG4)
# Sequence (Q9NRG4 whole entry): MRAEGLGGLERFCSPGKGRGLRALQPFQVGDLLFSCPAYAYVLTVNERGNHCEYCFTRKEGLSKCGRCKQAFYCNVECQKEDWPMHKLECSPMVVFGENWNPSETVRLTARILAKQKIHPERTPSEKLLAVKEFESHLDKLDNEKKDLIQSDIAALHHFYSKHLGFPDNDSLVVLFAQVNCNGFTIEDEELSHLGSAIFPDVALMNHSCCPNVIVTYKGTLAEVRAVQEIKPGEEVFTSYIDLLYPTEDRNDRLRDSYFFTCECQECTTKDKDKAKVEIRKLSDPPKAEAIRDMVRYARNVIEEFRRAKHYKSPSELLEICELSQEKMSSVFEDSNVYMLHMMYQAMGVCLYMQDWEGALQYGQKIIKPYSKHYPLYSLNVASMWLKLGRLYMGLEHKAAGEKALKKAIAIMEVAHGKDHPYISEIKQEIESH
# Experiment summary: SMYD2 biochemical methylation assay (3H-SAM, H3,1–29 peptide, flashplate)
# Design: Full length FLAG-SMYD2 and C-terminally Avi-tagged full length SMYD2 (SMYD2-Avi) were cloned into pFastbac vectors; FLAG (N); His tag with TEV cleavage site (N, cleaved yes); made in house; host or cells: Sf9 insect cells (baculovirus)
# Conditions: IC50 at 200 nM SAM, 1 nM SMYD2, 60 nM H3,1-29, 200 nM SAM
Parameter: pIC50
Bear in mind: pIC50 is minus log10 of a mol/L concentration; give just that figure.

# Molecule, pIC50
data = [
    ("O=C(NC1CN(Cc2cnn(Cc3ccccc3)c2)C1)c1cn(C2CC2)nn1", 7.60),
]

With those in mind, consider the next molecule.
Task: Can you look up pIC50 on SMYD2 (Homo sapiens, UniProt Q9NRG4) for "O=C(NC1CN(Cc2cnn(Cc3ccc(Cl)cc3)c2)C1)c1cn(C2CC2)nn1" ?
Output: 8.49

----------
# Tested on: panel of 240 cancer cell lines
# Experiment summary: Proliferation in a broad panel of 240 cancer cell lines, 2D culture (Eurofins Panlabs Oncopanel)
# Type: cell-based
# Conditions: Homo sapiens, A101D, Skin; read-out: IC50
Parameter: IC50

Task: Item NC1CCC(S(=O)(=O)N2C3CCC2CC(NC(=O)c2cc(C4CC4)on2)C3)CC1 (stereo not shown) [EPZ028862] with panel of 240 cancer cell lines - IC50?
Output: > 25 µM

----------
# Test system: panel of 240 cancer cell lines
# Experiment summary: Proliferation in a broad panel of 240 cancer cell lines, 2D culture (Eurofins Panlabs Oncopanel)
# Assay type: cell-based
# Conditions: ES-2, Female GU; read-out: IC50
pIC50: −log10 of the molar value.
Parameter: pIC50

Task: Need pIC50 of NC1CCC(S(=O)(=O)N2C3CCC2CC(NC(=O)c2cc(C4CC4)on2)C3)CC1 (stereo not shown) , thanks.
Output: < 4.60

----------
# Tested on: panel of 240 cancer cell lines
# Experiment summary: Proliferation in a broad panel of 240 cancer cell lines, 2D culture (Eurofins Panlabs Oncopanel)
# Format: cell-based
# Conditions: Homo sapiens, LS-1034, LS1034, Colon/GI; read-out: IC50
Parameter: IC50

Task: # query: IC50 of entry NC1CCC(S(=O)(=O)N2C3CCC2CC(NC(=O)c2cc(C4CC4)on2)C3)CC1 (stereo not shown)
Output: > 25 µM

----------
# Test system: panel of 240 cancer cell lines
# Experiment summary: Proliferation in a broad panel of 240 cancer cell lines, 2D culture (Eurofins Panlabs Oncopanel)
# Type: cell-based
# Conditions: Homo sapiens, FaDu, Head and Neck; read-out: IC50
Parameter: IC50

Task: Which IC50 is reported for this molecule? NC1CCC(S(=O)(=O)N2C3CCC2CC(NC(=O)c2cc(C4CC4)on2)C3)CC1 (stereo not shown)
Output: > 25 µM

----------
# Test system: panel of 240 cancer cell lines
# Experiment summary: Proliferation in a broad panel of 240 cancer cell lines, 2D culture (Eurofins Panlabs Oncopanel)
# Type: cell-based
# Conditions: A7, Skin; read-out: IC50
Parameter: IC50

Task: Fill blank: measured IC50 of the compound NC1CCC(S(=O)(=O)N2C3CCC2CC(NC(=O)c2cc(C4CC4)on2)C3)CC1 (stereo not shown) is ____.
Output: > 25 µM

----------
# System: panel of 240 cancer cell lines
# Experiment summary: Proliferation in a broad panel of 240 cancer cell lines, 2D culture (Eurofins Panlabs Oncopanel)
# Type: cell-based
# Conditions: Homo sapiens, BPH-1, BPH1, Prostate; read-out: IC50
pIC50: −log10 of the molar value.
Parameter: pIC50

Task: Item NC1CCC(S(=O)(=O)N2C3CCC2CC(NC(=O)c2cc(C4CC4)on2)C3)CC1 (stereo not shown) has what recorded pIC50?
Output: < 4.60

----------
# Test system: panel of 240 cancer cell lines
# Experiment summary: Proliferation in a broad panel of 240 cancer cell lines, 2D culture (Eurofins Panlabs Oncopanel)
# Assay type: cell-based
# Conditions: KLE, Female GU; read-out: IC50
pIC50: −log10 of the molar value.
Parameter: pIC50

Task: // returns reported pIC50 for input NC1CCC(S(=O)(=O)N2C3CCC2CC(NC(=O)c2cc(C4CC4)on2)C3)CC1 (stereo not shown)
Output: < 4.60

----------
# Test system: panel of 140 cell lines grown in matrigel
# Experiment summary: cells
# Conditions: read-out: growth effects in panel of 140 cell lines grown in matrigel (none observed up to)
Parameter: IC50

Task: I would be grateful if you could share the reported IC50 for NC1CCC(S(=O)(=O)N2C3CCC2CC(NC(=O)c2cc(C4CC4)on2)C3)CC1 (stereo not shown) [EPZ028862] .
Output: > 25 µM

----------
# Tested on: panel of 240 cancer cell lines
# Experiment summary: Proliferation in a broad panel of 240 cancer cell lines, 2D culture (Eurofins Panlabs Oncopanel)
# Assay type: cell-based
# Conditions: Homo sapiens, MDA-MB-468, MDA MB 468, Breast; read-out: IC50
pIC50: −log10 of the molar value.
Parameter: pIC50

Task: Find the recorded pIC50 belonging to NC1CCC(S(=O)(=O)N2C3CCC2CC(NC(=O)c2cc(C4CC4)on2)C3)CC1 (stereo not shown) and report it.
Output: < 4.60

----------
# Tested on: panel of 240 cancer cell lines
# Experiment summary: Proliferation in a broad panel of 240 cancer cell lines, 2D culture (Eurofins Panlabs Oncopanel)
# Type: cell-based
# Conditions: Homo sapiens, 647-V, Bladder; read-out: IC50
pIC50: −log10 of the molar value.
Parameter: pIC50

Task: Please state recorded pIC50 (tested on panel of 240 cancer cell lines) of NC1CCC(S(=O)(=O)N2C3CCC2CC(NC(=O)c2cc(C4CC4)on2)C3)CC1 (stereo not shown)
Output: < 4.60

----------
# Test system: SMYD2 (Homo sapiens)
# Experiment summary: SMYD2 biochemical methylation assay (3H-SAM, H3,1–29 peptide, flashplate)
# Parameters: Full length FLAG-SMYD2 and C-terminally Avi-tagged full length SMYD2 (SMYD2-Avi) were cloned into pFastbac vectors; FLAG (N); His tag with TEV cleavage site (N, cleaved yes); made in house; host or cells: Sf9 insect cells (baculovirus)
# Conditions: tested in duplicate; read-out: selectivity panel result, SMYD2 (off-target)
Parameter: IC50

Task: Could you tell me which IC50 is on file for NC1CCC(S(=O)(=O)N2C3CCC2CC(NC(=O)c2cc(C4CC4)on2)C3)CC1 (stereo not shown) ?
Output: > 10 µM
